For each record, write down the corresponding IC50 (neutralization).
- assayed-system: HIV-1 Env of isolate MGRM-F1-018 (subtype F) (HIV-1)
- assay-procedure: cell-based or functional assay
Answers are plain numbers, in µg/mL.

INSERT INTO assay_data (binder, readout_units, recorded_result) VALUES
  ('PGT-123 (antibody, V domains shown) VH: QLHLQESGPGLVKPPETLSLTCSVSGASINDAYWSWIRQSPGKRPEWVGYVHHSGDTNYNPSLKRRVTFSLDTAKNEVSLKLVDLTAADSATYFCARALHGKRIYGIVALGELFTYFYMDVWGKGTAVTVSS VL: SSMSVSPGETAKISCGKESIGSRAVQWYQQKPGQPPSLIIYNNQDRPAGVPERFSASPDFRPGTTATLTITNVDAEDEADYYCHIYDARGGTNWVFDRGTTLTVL', 'µg/mL', 0.054);

Turning now to a further binder:
Query: IC50 (neutralization); subject: PGT-128 (antibody, V domains shown) VH: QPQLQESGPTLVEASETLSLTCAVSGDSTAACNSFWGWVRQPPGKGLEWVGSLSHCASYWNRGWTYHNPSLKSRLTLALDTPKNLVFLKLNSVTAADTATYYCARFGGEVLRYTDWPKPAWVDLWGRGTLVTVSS VL: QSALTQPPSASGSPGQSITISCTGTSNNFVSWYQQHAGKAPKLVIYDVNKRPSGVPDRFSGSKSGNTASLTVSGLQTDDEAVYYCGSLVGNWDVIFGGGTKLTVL
0.023

Source of measurements: patent US20160264649A1
